Target: Tyrosine-protein phosphatase non-receptor type 1 (Homo sapiens)
Sequence (P18031 whole entry): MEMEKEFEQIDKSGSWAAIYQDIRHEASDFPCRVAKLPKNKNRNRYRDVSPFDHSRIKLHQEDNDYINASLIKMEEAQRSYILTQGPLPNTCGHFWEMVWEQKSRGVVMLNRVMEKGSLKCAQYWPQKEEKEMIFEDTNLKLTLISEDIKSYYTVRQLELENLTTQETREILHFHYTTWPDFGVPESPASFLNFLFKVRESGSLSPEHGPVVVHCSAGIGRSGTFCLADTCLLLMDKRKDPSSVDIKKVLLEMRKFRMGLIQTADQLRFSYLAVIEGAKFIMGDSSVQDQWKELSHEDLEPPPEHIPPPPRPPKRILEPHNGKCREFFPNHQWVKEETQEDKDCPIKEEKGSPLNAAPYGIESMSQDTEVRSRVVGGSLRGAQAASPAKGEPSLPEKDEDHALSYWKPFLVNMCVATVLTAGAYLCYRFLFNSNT
Test: Inhibition of recombinant GST-tagged PTP1B catalytic domain (1 to 321 residues) (unknown origin) expressed in Escherichia coli BL21(DE3) using pNPP as substrate after 30 mins by spectrophotometer
Measured Parameter: IC50 (µM)
Numbers only, in µM.

>>> assay_value("COC(=O)CSc1nnc(-c2ccc(O)c(O)c2)o1")
35.6

Provide IC50 for all items below, preserving their order.
1. Cc1ccc(Oc2ccc(-c3cnc(-c4ccc(O)c(O)c4)o3)cc2)cc1
2. COc1ccc(OC(=O)CSc2nnc(-c3ccc(O)c(O)c3)o2)cc1
3. CCC(C)(C)c1ccc(Oc2ccc(-c3cnc(-c4ccc(O)c(O)c4)o3)cc2)cc1
4. O=C(CSc1nnc(-c2ccc(O)c(O)c2)o1)c1ccccc1
5. O=C(CSc1nnc(-c2ccc(O)c(O)c2)o1)Oc1ccc(Oc2ccccc2)cc1
6. O=C(CSc1nnc(-c2ccc(O)c(O)c2)o1)Oc1ccc(Br)cc1

*A*
0.807
6.02
3.6
15.5
9.33
115

---

Biological target: Tyrosine-protein phosphatase non-receptor type 1 (Homo sapiens)
Test: Inhibition of recombinant GST-tagged PTP1B catalytic domain (1 to 321 residues) (unknown origin) expressed in Escherichia coli BL21(DE3) using pNPP as substrate after 30 mins by spectrophotometer
pIC50: −log10 of the molar value.
Label criterion met when pIC50 is at or above 5; anything below gets criterion not met.

*Q* Could you please find out whether CCOc1ccc(Oc2ccc(-c3cnc(-c4ccc(O)c(O)c4)o3)cc2)cc1 has pIC50 that meets 5 or exceeds it?
*A* criterion not met

*Q* Tell me whether pIC50 is at least 5 here: O=C(CSc1nnc(-c2ccc(O)c(O)c2)o1)Oc1ccc(C(F)(F)F)cc1
*A* criterion not met

*Q* Does the molecule COCCc1ccc(Oc2ccc(OC(=O)CSc3nnc(-c4ccc(O)c(O)c4)o3)cc2)cc1 have recorded pIC50 that is 5 or more?
*A* criterion not met

*Q* Please indicate if the recorded pIC50 for Oc1ccc(-c2ncc(-c3ccc(Oc4ccccc4)cc3)o2)cc1O meets or exceeds 5.
*A* criterion met

---

Hi there, I'd appreciate the recorded IC50 for every entry that follows.
Target: Tyrosine-protein phosphatase non-receptor type 2 (Homo sapiens, UniProt P17706)
Sequence (P17706 whole entry): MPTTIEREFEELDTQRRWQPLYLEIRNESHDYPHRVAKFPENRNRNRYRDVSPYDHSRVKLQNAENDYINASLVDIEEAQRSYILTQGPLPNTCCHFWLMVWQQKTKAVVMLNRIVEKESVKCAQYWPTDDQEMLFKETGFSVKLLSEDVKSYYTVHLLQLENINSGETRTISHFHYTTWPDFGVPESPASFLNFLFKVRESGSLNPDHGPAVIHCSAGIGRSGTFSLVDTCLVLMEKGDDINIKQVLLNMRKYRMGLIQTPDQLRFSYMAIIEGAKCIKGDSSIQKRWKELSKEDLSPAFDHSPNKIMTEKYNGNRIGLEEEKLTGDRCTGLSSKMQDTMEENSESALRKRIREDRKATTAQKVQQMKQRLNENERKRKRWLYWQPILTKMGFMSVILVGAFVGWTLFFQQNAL
Answers are plain numbers, in µM.

Hi team, please reply with IC50 for each item in this list.
1. Cc1ccc(Oc2ccc(C(=O)CSc3nnc(-c4ccc(O)c(O)c4)o3)cc2)cc1
2. CC(C)(C)c1ccc(Oc2ccc(-c3cnc(-c4ccc(O)c(O)c4)o3)cc2)cc1

*A*
1: 8.73; 2: 13.3

---

Biological target: Tyrosine-protein phosphatase non-receptor type 1 (Homo sapiens)
Sequence (P18031 whole entry): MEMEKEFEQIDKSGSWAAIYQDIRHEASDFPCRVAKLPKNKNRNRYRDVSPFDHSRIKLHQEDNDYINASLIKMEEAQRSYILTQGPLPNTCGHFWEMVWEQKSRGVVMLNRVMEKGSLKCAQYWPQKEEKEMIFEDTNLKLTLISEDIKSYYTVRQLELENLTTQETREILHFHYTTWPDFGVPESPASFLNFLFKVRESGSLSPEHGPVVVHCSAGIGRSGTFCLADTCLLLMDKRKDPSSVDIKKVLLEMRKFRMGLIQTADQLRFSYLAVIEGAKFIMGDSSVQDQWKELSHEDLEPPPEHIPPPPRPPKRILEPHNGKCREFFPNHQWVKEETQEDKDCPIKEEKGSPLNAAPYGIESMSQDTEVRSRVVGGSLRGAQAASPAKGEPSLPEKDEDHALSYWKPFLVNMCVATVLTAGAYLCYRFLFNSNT
Experiment: Inhibition of recombinant GST-tagged PTP1B catalytic domain (1 to 321 residues) (unknown origin) expressed in Escherichia coli BL21(DE3) using pNPP as substrate after 30 mins by spectrophotometer
For each of the compounds below, state its pIC50.
One number for each entry, as −log10 of the molar value.

Fill in pIC50 for each of the 4 compounds listed.
1. Cc1ccc(Oc2ccc(C(=O)CSc3nnc(-c4ccc(O)c(O)c4)o3)cc2)cc1
2. Oc1ccc(-c2ncc(-c3ccc(Oc4ccc(-c5ccccc5)cc4)cc3)o2)cc1O
3. CC(C)c1ccc(Oc2ccc(OC(=O)CSc3nnc(-c4ccc(O)c(O)c4)o3)cc2)cc1
4. Oc1ccc(-c2nnc(SCc3ccccc3)o2)cc1O

*A*
1: 5.41; 2: 5.20; 3: 4.96; 4: 4.50

Please state pIC50 for every compound in the list that follows.
1. CC(C)(C)c1ccc(Oc2ccc(OC(=O)CSc3nnc(-c4ccc(O)c(O)c4)o3)cc2)cc1
2. O=C(CSc1nnc(-c2ccc(O)c(O)c2)o1)Oc1ccccc1

*A*
4.98
5.09

Quick request: pIC50 for each listed item, please.
1. CC(C)c1ccc(Oc2ccc(-c3cnc(-c4ccc(O)c(O)c4)o3)cc2)cc1
2. O=C(CSc1nnc(-c2ccc(O)c(O)c2)o1)Oc1ccc(Oc2ccc(OCc3ccccc3)cc2)cc1
3. COCCc1ccc(Oc2ccc(-c3cnc(-c4ccc(O)c(O)c4)o3)cc2)cc1
4. CC(C)(C)c1ccc(Oc2ccc(-c3cnc(-c4ccc(O)c(O)c4)o3)cc2)cc1
5. O=C(CSc1nnc(-c2ccc(O)c(O)c2)o1)Oc1ccc(OCc2ccccc2)cc1

*A*
[5.13, 4.67, 4.72, 6.31, 5.11]

Each compound below has a reported value. Please supply its pIC50.
1. CCOc1ccc(Oc2ccc(OC(=O)CSc3nnc(-c4ccc(O)c(O)c4)o3)cc2)cc1
2. Cc1ccc(OC(=O)CSc2nnc(-c3ccc(O)c(O)c3)o2)cc1
3. COc1ccc(Oc2ccc(-c3cnc(-c4ccc(O)c(O)c4)o3)cc2)cc1

*A*
[4.77, 5.32, 5.16]
